experiment: photoluminescence quantum yield (fraction); solvent given as SMILES; conditions: in ClCCl
Binarize photoluminescence quantum yield at 0.04; below is True, at or above is False.

Completed entries (count: 6):
Substance Smiles | Label Value
c1ccc2c(C3=C(c4cccc5ccccc45)c4cccc5c4c(cc4nc6ccccc6nc45)O3)cccc2c1 | False
Cc1cccc2nc(-c3ccc(-c4cc(=O)cc(-c5ccccc5)o4)cc3)c(NC3CCCCC3)n12 | True
CCCCN1c2ccccc2B(c2ccccc2C(F)(F)F)c2ccccc21 | False
CC(C)(C)c1ccc(-c2ccc3c(-c4ccc(C(C)(C)C)c5ccccc45)cc4c5cc(-c6ccc(C(C)(C)C)c7ccccc67)ccc5c(-c5ccc(C(C)(C)C)c6ccccc56)cc4c3c2)c2ccccc12 | False
CCN(CC)c1ccc2c(c1)oc(=O)c1c(C)nc3c(cnn3-c3ccccc3)c12 | False
CC1(C)c2ccccc2N(c2ccc(-c3nc(-c4ccccc4)cc(-c4ccccc4)n3)cc2)c2ccccc21 | False

[in] Is photoluminescence quantum yield strictly under 0.04 for the entry CC(C)(C)OC(=O)COc1ccc2c(c1)oc(=O)c1c(=O)oc3ccccc3c12 ?
[out] True

[in] Is photoluminescence quantum yield strictly under 0.04 for the entry Nc1ccc2c(c1)C(=O)NC2=O ?
[out] False
